protocol.description: Cytotoxicity on growing Vero cells (MTS)
Assay type: cell-based
test.context: african green monkey, Table 4, 50% inhibition of logphase growing cells, read-out: TC50 Growing Vero
Task for the reader: assign each of the following molecules its reported CC50 at 96 h.

Ask: Given Nc1nc2c(ncn2COCCO)c(=O)[nH]1 [ACV, acyclovir, reference compound] , respond with its CC50 at 96 h.
Reply: > 250 µg/mL

Ask: Retrieve CC50 at 96 h measured for Nc1ncnc2pc[nH]c12 (stereo not drawn) and print it.
Reply: > 50 µg/mL

Ask: Fill in CC50 at 96 h for record Nc1ncnc2pcn(COC(CO)CO)c12 (stereo not drawn)
Reply: 41.4 µg/mL

Ask: Identify measured CC50 at 96 h associated with Nc1nc(O)c2ncn(COC(CO)CO)c2n1 [DHPG, ganciclovir, reference compound]
Reply: > 250 µg/mL

Ask: Fill in CC50 at 96 h for record Nc1ncnc2pcn(COCCO)c12 (stereo not drawn)
Reply: > 50 µg/mL

Ask: Report measured CC50 at 96 h; entry is CCCCCn1cpc2ncnc(N)c21 (stereo not drawn)
Reply: 8.18 µg/mL

* * *

protocol.description: Cytotoxicity on growing THP-1 cells (MTS assay)
Format: cell-based, human
test.context: human, thp-1 cells; Table 2; drug dose required to inhibit logphase growing cells by 50%; read-out: TC50 Growing THP-1
Hi there, I'd appreciate the recorded CC50 at 96 h for every entry that follows.
Express it in µg/mL; write the number only.

Ask: Return reported CC50 at 96 h. Input molecule: Nc1ncnc2pcn([C@@H]3O[C@H](CO)[C@@H](O)[C@H]3O)c12 (some centres unmarked) [T70264]
Reply: 118

Ask: Supply measured CC50 at 96 h of CCCCCn1cpc2ncnc(N)c21 (centres unmarked) [T70254] in your reply.
Reply: 14.7

Ask: Please indicate CC50 at 96 h recorded for Cn1c(=O)n(CCCCC(C)(C)O)c(=O)c2nc[nH]c21 [HWA-3138, reference compound]
Reply: 316

Ask: Give the reported value of CC50 at 96 h for this record: Nc1ncnc2pcn([C@H]3C[C@H](O)[C@@H](CO)O3)c12 (some centres unmarked) [T70265]
Reply: 105

* * *

protocol.description: Cytotoxicity on static Vero cells
Format: cell-based
test.context: african green monkey, Table 4, 50% cell death (static cells), read-out: TC50 Static Vero
Could you please report measured CC50 at 96 h for the items listed next?

Ask: Identify measured CC50 at 96 h corresponding to CCCCCn1cpc2ncnc(N)c21 (stereo not drawn)
Reply: 18.2 µg/mL

Ask: Using the record for Nc1nc(O)c2ncn(COC(CO)CO)c2n1 [DHPG, ganciclovir, reference compound] , state its measured CC50 at 96 h.
Reply: > 250 µg/mL

Ask: Write down CC50 at 96 h measured for item Nc1nc2c(ncn2COCCO)c(=O)[nH]1 [ACV, acyclovir, reference compound]
Reply: > 250 µg/mL

Ask: Please give measured CC50 at 96 h of the following entry: Nc1ncnc2pcn(COC(CO)CO)c12 (stereo not drawn)
Reply: > 50 µg/mL

Ask: Determine its reported CC50 at 96 h: Nc1ncnc2pc[nH]c12 (stereo not drawn)
Reply: > 50 µg/mL

Ask: Please report the measured CC50 at 96 h for Nc1ncnc2pcn(COCCO)c12 (stereo not drawn)
Reply: > 50 µg/mL

* * *

protocol.description: Cytotoxicity on growing MRC-5 cells (MTS)
Format: cell-based, human
test.context: human, mrc-5 cells; FIG. 9A; four day period; read-out: TC50, growing MRC-5 cells
parameter: CC50 at 96 h

Ask: Give the value of CC50 at 96 h reported for the following: Nc1ncnc2pc[nH]c12 (stereo not shown) [T70241]
Reply: > 50 µg/mL

* * *

protocol.description: Cytotoxicity on growing MRC-5 cells (MTS)
Format: cell-based, human
test.context: human, mrc-5 cells; Table 4; 50% inhibition of logphase growing cells; read-out: TC50 Growing MRC-5
For each record, write down the corresponding CC50 at 96 h.

Ask: Quote CC50 at 96 h reported for CCCCCn1cpc2ncnc(N)c21 (centres unmarked) [T70254] please.
Reply: 17.9 µg/mL

Ask: Supply measured CC50 at 96 h of Nc1nc2c(ncn2COCCO)c(=O)[nH]1 [ACV, acyclovir, reference compound] in your reply.
Reply: > 250 µg/mL

Ask: Look up and report measured CC50 at 96 h for this entry: Nc1ncnc2pcn(COCCO)c12 (centres unmarked) [T70268]
Reply: > 50 µg/mL

Ask: State, in one line, measured CC50 at 96 h of Nc1ncnc2pcn(COC(CO)CO)c12 (centres unmarked) [T70269]
Reply: > 50 µg/mL

Ask: In one line, give reported CC50 at 96 h of the entry Nc1nc(O)c2ncn(COC(CO)CO)c2n1 [DHPG, ganciclovir, reference compound] .
Reply: > 250 µg/mL

* * *

Tested on: TNFα
protocol.description: Inhibition of TNFα production in LPS-stimulated THP-1 cells (ELISA)
Format: cell-based, human
test.context: Homo sapiens; Table 2; LPS-stimulated THP-1, 6 h post-stimulation
Experimental: Cell line. THP-1 cells (human monocyte) were maintained in RPMI 1640 medium containing 25 mM Hepes buffer, 2 mM L-glutamine, 50 units of penicillin per mL, 50 μg of streptomycin sulfate per mL, and 10% heat-inactivated fetal bovine serum (FBS) in a humidified incubator containing 5% CO2. The cells were split 1:4 weekly as recommended by the American Type Culture Collection (ATCC). TNFα assay. […]
Each record gets a class by IC50: low class: < 30 µg/mL; middle class: ≥ 30 µg/mL and < 200 µg/mL; high class: ≥ 200 µg/mL

Ask: # bin lookup: classify Nc1ncnc2c1ncn2[C@@H]1O[C@H](CO)[C@@H](O)[C@H]1O [Adenosine, reference compound] by its IC50
Reply: middle class

Ask: Consider O=c1[nH]c(=O)c2[nH]cpc2[nH]1 (stereo not drawn) [T70270] . To which IC50 class does it belong?
Reply: high class

Ask: Exercise: read the entry Cn1c(=O)n(CCCCC(C)(C)O)c(=O)c2nc[nH]c21 [HWA-3138, reference compound] and state which class it falls under.
Reply: high class

Ask: Please report the category associated with Nc1ncnc2pcn([C@H]3C[C@H](O)[C@@H](CO)O3)c12 (stereo partly drawn) [T70265] , nothing else.
Reply: low class

Ask: Note: place this compound into its band. Item: Cn1c(=O)c2c(pcn2C)n(C)c1=O (stereo not drawn) [T70271]
Reply: middle class

Ask: Class for O=c1[nH]cnc2pc[nH]c12 (stereo not drawn) [T70256] ?
Reply: middle class

Ask: GET /class?item= CCCCCn1cpc2ncnc(N)c21 (stereo not drawn) [T70254]
Reply: low class

Ask: Exam item: assign Nc1ncnc2nc[nH]c12 [Adenine, reference compound] to the correct category.
Reply: high class

Ask: Please report the category associated with Nc1ncnc2pc[nH]c12 (stereo not drawn) [T70241] , nothing else.
Reply: low class

Ask: Sort Nc1ncnc2pcn([C@@H]3O[C@H](CO)[C@@H](O)[C@H]3O)c12 (stereo partly drawn) [T70264] into one of the categories.
Reply: middle class

* * *

System: HCMV (Town strain)
protocol.description: HCMV plaque reduction (CPE) assay in MRC-5 cells
Assay type: cell-based, human cytomegalovirus
test.context: Human betaherpesvirus 5, MRC5; Table 4; read-out: IC50 HCMV
parameter: IC50 (µg/mL)
Number only, in µg/mL; omit the unit.

Ask: State IC50 (HCMV (Town strain)) of Nc1nc(O)c2ncn(COC(CO)CO)c2n1 [DHPG, ganciclovir, reference compound] .
Reply: 3.5

Ask: Give HCMV (Town strain) IC50 for the following compound: Nc1ncnc2pc[nH]c12 (stereo not shown)
Reply: 8.08

Ask: Provide HCMV (Town strain) IC50 reading for Nc1ncnc2pcn(COC(CO)CO)c12 (stereo not shown) .
Reply: 26.1

* * *

For each record, write down the corresponding CC50 at 96 h.
protocol.description: Cytotoxicity on static MRC-5 cells
Assay type: cell-based
test.context: human, Table 4, 50% cell death (static cells), read-out: TC50 Static MRC-5

Ask: Note down CC50 at 96 h recorded for Nc1ncnc2pcn(COCCO)c12 (stereo not drawn)
Reply: > 50 µg/mL

Ask: Look up and report measured CC50 at 96 h for this entry: Nc1ncnc2pc[nH]c12 (stereo not drawn)
Reply: > 50 µg/mL

Ask: Please report the measured CC50 at 96 h for Nc1nc(O)c2ncn(COC(CO)CO)c2n1 [DHPG, ganciclovir, reference compound]
Reply: > 250 µg/mL

Ask: Return reported CC50 at 96 h. Input compound: CCCCCn1cpc2ncnc(N)c21 (stereo not drawn)
Reply: 9.25 µg/mL

Ask: For the compound Nc1nc2c(ncn2COCCO)c(=O)[nH]1 [ACV, acyclovir, reference compound] , give its measured CC50 at 96 h value.
Reply: > 250 µg/mL

Ask: Answer with the recorded CC50 at 96 h of Nc1ncnc2pcn(COC(CO)CO)c12 (stereo not drawn) only.
Reply: > 50 µg/mL
